B1: CPEB3 Ribozyme (parent)
chain: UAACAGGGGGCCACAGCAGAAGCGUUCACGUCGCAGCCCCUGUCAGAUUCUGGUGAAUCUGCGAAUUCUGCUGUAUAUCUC

Variants of: B1
assay_notes: self-cleavage, relative activity (ratio to wild type); higher = more cleavage; in vitro, sequencing
measured_quantity: self-cleavage

Worked examples follow.
# residue_sequence, measured_quantity, observed_result
rows = [
    ("UAACAGGGGGCCACCGCAGAAGCGUUCACGUCGCAGCCCCUGUCAGAUUCUGGUGAAACUGCGAAUUCUGCUGUAUAUCUC [A15C U58A]", "self-cleavage", 0.41),
    ("UAACAGGGGGCCACAGCAGAAGCGUUCACGCCGCAGCCCCUGUCAGAAUCUGGUGAAUCUGCGAAUUCUGCUGUAUAUCUC [U31C U48A]", "self-cleavage", 0.39),
]

IN: Which self-cleavage is listed for UAACAGGGGGCCACAGCAGAAGCGUUCACAUCGCAGCCCCUGUCAGAUUCUGGUGAAUCUGCGAAUUCUACUGUAUAUCUC [G30A G70A] ?
OUT: 0.39

IN: State the recorded self-cleavage for this entry: UUACAGGGGGCCACAGCUGAAGCGUUCACGUCGCAGCCCCUGUCAGAUUCUGGUGAAUCUGCGAAUUCUGCUGUAUAUCUC [A2U A18U]
OUT: 0.41
